// provenance: paper PMC12593154

# TEST: Solubility analysis of berberine in organic solvents (excess compound, 24 h agitation, spectrophotometer)
# Assay type: physicochemical
# CONDITION INFO: dichloromethane, 35 °C, organic solvent or mixture, thermodynamic from solid
READOUT LABEL: solubility at 24 h (µg/mL)
Give bare numbers, in µg/mL.

In: Return solubility at 24 h (reported value) for this compound: COc1ccc2cc3[n+](cc2c1OC)CCc1cc2c(cc1-3)OCO2 [Berberine, Berberine chloride]
Out: 3.47

---

# TEST: Solubility analysis of berberine in organic solvents (excess compound, 24 h agitation, spectrophotometer)
# Type: physicochemical
# CONDITION INFO: methanol, 35 °C, organic solvent or mixture, thermodynamic from solid
# Experimental: The solubility study of the compound in different solvents was carried out. Acetone, ethanol, methanol, 1-propanol, 1-butanol, and dichloromethane were used. An excess compound was added to 100 mL of solvent at 25 and 35 °C. The solution was agitated at 100 rpm for 24 h to achieve solid–liquid equilibrium. It was then left for 2 h without stirring to allow the sedimentation of the insolubilized particles. An aliquot was taken and analyzed with a spectrophotometer.
READOUT LABEL: solubility at 24 h (µg/mL)
Answers are plain numbers, in µg/mL.

In: Look up and state reported solubility at 24 h for COc1ccc2cc3[n+](cc2c1OC)CCc1cc2c(cc1-3)OCO2 [Berberine, Berberine chloride]
Out: 35

---

# TEST: Solubility analysis of berberine in organic solvents (excess compound, 24 h agitation, spectrophotometer)
# Assay type: physicochemical
# CONDITION INFO: 1-propanol, 25 °C, organic solvent or mixture, thermodynamic from solid
READOUT LABEL: solubility at 24 h (µg/mL)
Answers are plain numbers, in µg/mL.

In: Return solubility at 24 h for the following compound: COc1ccc2cc3[n+](cc2c1OC)CCc1cc2c(cc1-3)OCO2 [Berberine, Berberine chloride]
Out: 3

---

# TEST: Solubility analysis of berberine in organic solvents (excess compound, 24 h agitation, spectrophotometer)
# Type: physicochemical
# CONDITION INFO: 1-butanol, 25 °C, organic solvent or mixture, thermodynamic from solid
READOUT LABEL: solubility at 24 h (µg/mL)
Give bare numbers, in µg/mL.

In: Write down solubility at 24 h measured for item COc1ccc2cc3[n+](cc2c1OC)CCc1cc2c(cc1-3)OCO2 [Berberine, Berberine chloride]
Out: 5.4

---

# TEST: Solubility analysis of berberine in organic solvents (excess compound, 24 h agitation, spectrophotometer)
# Type: physicochemical
# CONDITION INFO: acetone, 25 °C, organic solvent or mixture, thermodynamic from solid
READOUT LABEL: solubility at 24 h (µg/mL)
One number for each entry, in µg/mL.

In: Please list solubility at 24 h recorded for the molecule COc1ccc2cc3[n+](cc2c1OC)CCc1cc2c(cc1-3)OCO2 [Berberine, Berberine chloride]
Out: 0.16
